- System: T98g cells
- TEST METHOD NOTES: Cell viability assay (WST-1), toxic potency and efficacy at T98g cells
- Type: cell-based
- RUN CONDITIONS: Homo sapiens, 72 h, read-out: Toxic potency at T98g cells (percent efficacy)
ATTRIBUTE MEASURED: Emax (%)

{"columns": ["COMPOUND", "ATTRIBUTE MEASURED", "RESULT"],
 "data": [
  ["CCn1c(C)c(C(=O)c2ccc(C)c3ccccc23)c2ccccc21 [JWH-451]", "Emax", 81],
  ["Cc1c(C(=O)c2cccc3ccccc23)c2cccc3c2n1[C@@H](CN1CCOCC1)CO3 [WIN55212-2]", "Emax", 87],
  ["Cc1ccc(C(=O)c2c(C)n(CCN3CCOCC3)c3ncccc23)c2ccccc12 [CBX-003]", "Emax", 71],
  ["CC(=O)c1c(C)n(CCCOc2ccccc2)c2ccccc12 [TK-14]", "Emax", 92],
  ["CCCn1c(C)c(C(=O)c2ccc(C)c3ccccc23)c2ccccc21 [JWH-148]", "Emax", 48],
  ["Cc1ccc(C(=O)c2c(C)n(CCN3CCOCC3)c3cc(Cl)ccc23)c2ccccc12 [CBX-004]", "Emax", 68],
  ["Cc1ccc(C(=O)c2c(C)n(CCN3CCOCC3)c3ccc(Cl)cc23)c2ccccc12 [CBX-002]", "Emax", 45],
  ["O=C(c1cccc2ccccc12)c1cn(CCN2CCOCC2)c2ccccc12 [JWH-200]", "Emax", 48],
  ["Cc1ccc(C(=O)c2c(C)n(C)c3ccccc23)c2ccccc12 [JWH-450]", "Emax", 66]
]}
